# Test system: ACHN renal
# ASSAY DETAILS: NCI-60 one-dose screen, 48 h
# CONDITION DETAILS: 10 µM unless noted
The panel holds about 83,000 compounds, 20% with a hit somewhere; the sample as a whole holds those more often. Activity calls are given as the source filed them. The calls were made as follows: active = growth percent below 10; inactive = the rest.
Parameter call: string, one of active, inactive

Would you mind telling me which call this test gave `COc1ccc(-c2cc3cnc4ccccc4c3oc2=O)cc1` ?
inactive

Would you mind telling me which call this test gave `CCOC(=O)c1c(-c2ccc(OC)cc2)c(C#N)c2c(C#N)c(N)nn2c1N` ?
inactive

Would you mind telling me which call this test gave O=C1OCC2=C1C(c1cccc([N+](=O)[O-])c1)c1cc3c(cc1N2CCO)CCC3 (stereo not given) ?
inactive

Would you mind telling me which call this test gave `O=C1/C(=C/c2ccc(-c3cccc(C(F)(F)F)c3)o2)SC(=S)N1CCc1ccc(O)cc1` ?
inactive

Would you mind telling me which call this test gave `O=C(NCc1cccnc1)/C(=C\c1ccc(Br)cc1)S(=O)(=O)c1ccccc1` ?
active

Would you mind telling me which call this test gave `CC/C(=C(/c1ccc(Cl)cc1)c1ccc(OCCN2CCOCC2)cc1)c1ccccc1` ?
inactive

Would you mind telling me which call this test gave `O=c1cc(N/N=C/c2ccc(F)cc2)c2cc(Cl)ccc2[nH]1` ?
inactive
